Test system: HL-60
Test: Relative cytotoxicity against human promyelocytic leukemia(HL-60) cells
Assay type: functional, cell-based
pIC50: −log10 of the molar value.

Compound	pIC50
CCn1c2cc(N3CCN(C)CC3)c(N)cc2c(=O)c2c(O)cc(OC)cc21	4.72
CCN(CC)CCn1c2cc(Cl)c(N)cc2c(=O)c2c(O)cc(OC)cc21	5.73
COc1cc([C@@H]2c3cc4c(cc3[C@@H](O[C@@H]3O[C@@H]5CO[C@@H](C)O[C@H]5[C@H](O)[C@H]3O)[C@H]3COC(=O)[C@H]23)OCO4)cc(OC)c1O [ETOPOSIDE]	6.44

The values you see were collected from ChEMBL document CHEMBL1132240.
